# TARGET: Broad substrate specificity ATP-binding cassette transporter ABCG2 (Homo sapiens) (UniProt Q9UNQ0)
# Sequence (Q9UNQ0 whole entry, looked up): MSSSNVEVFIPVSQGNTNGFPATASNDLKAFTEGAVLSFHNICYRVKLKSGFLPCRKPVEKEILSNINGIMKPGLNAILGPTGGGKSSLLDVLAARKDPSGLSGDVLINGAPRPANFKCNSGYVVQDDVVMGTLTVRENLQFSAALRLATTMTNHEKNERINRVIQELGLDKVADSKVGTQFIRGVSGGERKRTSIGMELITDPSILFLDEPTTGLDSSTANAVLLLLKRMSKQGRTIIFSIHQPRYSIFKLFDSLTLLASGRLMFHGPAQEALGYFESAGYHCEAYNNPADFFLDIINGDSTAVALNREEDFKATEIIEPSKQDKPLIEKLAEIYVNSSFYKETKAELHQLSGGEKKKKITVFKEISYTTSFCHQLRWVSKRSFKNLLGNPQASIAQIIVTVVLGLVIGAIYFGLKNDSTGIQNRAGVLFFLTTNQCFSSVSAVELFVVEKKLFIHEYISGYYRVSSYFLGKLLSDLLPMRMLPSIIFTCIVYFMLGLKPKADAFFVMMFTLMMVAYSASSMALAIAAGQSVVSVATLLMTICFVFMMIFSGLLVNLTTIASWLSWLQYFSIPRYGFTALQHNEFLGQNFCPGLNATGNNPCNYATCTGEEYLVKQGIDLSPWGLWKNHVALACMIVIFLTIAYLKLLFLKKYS
# EXPERIMENTAL_DETAILS: ABCG2 efflux pump inhibitors, primary screen, multiplex with ABCB1, IgMXP3 cells, flow cytometry (AID 1325);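 further: 0% = DMSO and 100% = nicardipine control wells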
# SETUP_CONDITIONS: JC-1 efflux, at 6.6 µM, stronger effect = higher value
Hit rate of the full screen: of about 190,000 compounds, about 200 (0.11%) were called active. For the sample, actives were picked, then their nearest neighbours and some compounds at random.
MEASURED_ATTRIBUTE: inhibition

Would you please look over these solved cases?
CCC(CC)c1nnc(NC(=O)c2nn(C)c(=O)c3ccccc23)s1 : 6.7% (inactive)
C/C(=N/O)c1ccc(N2C(=O)C3C4C=CC(C3C2=O)C2C3C(=O)N(c5ccc(/C(C)=N/O)cc5)C(=O)C3C42)cc1 (stereo unspecified) : -1.72% (inactive)
CCOC(=O)c1sc(=NC(=O)/C=C/c2cccs2)n(C)c1C : 2.28% (inactive)

Note to self: inhibition recorded for `O=C(Cn1cc(C(F)(F)F)ccc1=O)N/N=C/c1ccc(Cl)cc1Cl` was -1.56% (inactive)

Note to self: inhibition recorded for `C=CCc1cccc2cc(C(=O)Nc3ccc(NC(C)=O)cc3)c(=O)oc12` was 0.59% (inactive)

###

# TARGET: Broad substrate specificity ATP-binding cassette transporter ABCG2 (Homo sapiens) (UniProt Q9UNQ0)
# EXPERIMENTAL_DETAILS: ABCG2 efflux pump inhibitors, primary screen, multiplex with ABCB1, IgMXP3 cells, flow cytometry (AID 1325);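 further: 0% = DMSO and 100% = nicardipine control wells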
# SETUP_CONDITIONS: JC-1 efflux, at 6.6 µM, stronger effect = higher value
Hit rate of the full screen: of about 190,000 compounds, about 200 (0.11%) were called active. The sample as a whole holds a higher share of actives than the screen did.
Measured inhibition by item
Numeric only. Scale: %

CCN1CCN(C(=O)CCN2C(=O)c3ccccc3C2=O)CC1 : 12.2

Note to self: inhibition recorded for `Cc1ccc(O)c(NC(=S)NC(=O)COc2ccc(Br)cc2)c1` was 3.88

Note to self: inhibition recorded for CC(CO)NCC12CC3CC(CC(C3)C1)C2 (stereo unspecified) was -2.66

###

# TARGET: Broad substrate specificity ATP-binding cassette transporter ABCG2 (Homo sapiens) (UniProt Q9UNQ0)
# EXPERIMENTAL_DETAILS: ABCG2 efflux pump inhibitors, primary screen, multiplex with ABCB1, IgMXP3 cells, flow cytometry (AID 1325);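 further: 0% = DMSO and 100% = nicardipine control wells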
# SETUP_CONDITIONS: JC-1 efflux, at 6.6 µM, stronger effect = higher value
Hit rate of the full screen: of about 190,000 compounds, about 200 (0.11%) were called active. The full list was thinned out, with actives kept by preference.
Measured inhibition by item
Numeric only. Scale: %

Would you please look over these solved cases?
Cc1ccc(OCc2nnc(SC3CCc4ccccc4C3=O)n2C)cc1 (stereo not drawn) : 1.34
O=[N+]([O-])c1ccc2[nH]c3c(c2c1)CCCC3O (stereo not drawn) : 14.8
CC(=O)c1ccc(NC(=O)Nc2ccc([N+](=O)[O-])cc2C)cc1 : 28.4

Note to self: inhibition recorded for COc1ccc(CN(C)C(C)C(=O)NC2CCCc3ccccc32)cc1 (stereo not drawn) was 6.36

Note to self: inhibition recorded for `CSc1ccc(CN2C(=O)NC3(CCCCCC3)C2=O)cc1` was -1.59

Note to self: inhibition recorded for `Cc1ccc(NC(=O)C2(N3CCC3=O)CCCCC2)cc1` was 0.01

Note to self: inhibition recorded for `CN(C)c1ccc2c(=O)[nH][nH]c(=O)c2c1` was 2.2

Note to self: inhibition recorded for `O=C(Nc1ccccc1C(=O)O)c1cc(S(=O)(=O)N2CCCCC2)cs1` was -0.42
